- system: Sulfonylurea receptor 1, Kir6.2 (Homo sapiens) (UniProt Q14654+Q09428)
- procedure-details: Percent maximal agonist response of human KATP (SUR1/Kir6.2) channel expressed in Xenopus oocytes
- Assay type: functional, cell-based
- condition-set: Oocyte
assay-endpoint: Max response (%)
One number for each entry, in %.

Example cases with answers are listed next.
line-notation: CC1=Nc2ccc(Cl)cc2S(=O)(=O)N1
system: Sulfonylurea receptor 1, Kir6.2 (Homo sapiens) (UniProt Q14654+Q09428)
Max response, %: 100

line-notation: O=[N+]([O-])c1c(C(F)(F)F)n[nH]c1-c1ccc(F)cc1F
system: Sulfonylurea receptor 1, Kir6.2 (Homo sapiens) (UniProt Q14654+Q09428)
Max response, %: 113

line-notation: O=[N+]([O-])c1ccc(-c2[nH]nc(C(F)(F)F)c2[N+](=O)[O-])cc1
system: Sulfonylurea receptor 1, Kir6.2 (Homo sapiens) (UniProt Q14654+Q09428)
Max response, %: 94

Incoming: Sample O=[N+]([O-])c1c(C(F)(F)F)n[nH]c1-c1ccc(C(F)(F)F)cc1C(F)(F)F — what was its Max response?
Outgoing: 197

====

Answer each item with its documented pEC50.
- system: Sulfonylurea receptor 1, Kir6.2 (Homo sapiens, UniProt Q09428+Q14654)
- Sequence (Q14654 whole entry): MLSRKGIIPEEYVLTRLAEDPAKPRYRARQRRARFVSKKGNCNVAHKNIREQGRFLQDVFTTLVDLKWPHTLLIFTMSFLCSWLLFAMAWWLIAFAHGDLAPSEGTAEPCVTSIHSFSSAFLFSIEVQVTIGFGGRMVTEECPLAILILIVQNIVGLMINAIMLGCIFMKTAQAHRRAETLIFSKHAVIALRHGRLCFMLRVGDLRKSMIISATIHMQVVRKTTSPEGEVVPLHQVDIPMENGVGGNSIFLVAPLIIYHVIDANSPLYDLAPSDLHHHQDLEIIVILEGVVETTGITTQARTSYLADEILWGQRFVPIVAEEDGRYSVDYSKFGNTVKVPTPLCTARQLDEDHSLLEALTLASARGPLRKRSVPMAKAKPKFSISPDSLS
- Sequence (Q09428 whole entry): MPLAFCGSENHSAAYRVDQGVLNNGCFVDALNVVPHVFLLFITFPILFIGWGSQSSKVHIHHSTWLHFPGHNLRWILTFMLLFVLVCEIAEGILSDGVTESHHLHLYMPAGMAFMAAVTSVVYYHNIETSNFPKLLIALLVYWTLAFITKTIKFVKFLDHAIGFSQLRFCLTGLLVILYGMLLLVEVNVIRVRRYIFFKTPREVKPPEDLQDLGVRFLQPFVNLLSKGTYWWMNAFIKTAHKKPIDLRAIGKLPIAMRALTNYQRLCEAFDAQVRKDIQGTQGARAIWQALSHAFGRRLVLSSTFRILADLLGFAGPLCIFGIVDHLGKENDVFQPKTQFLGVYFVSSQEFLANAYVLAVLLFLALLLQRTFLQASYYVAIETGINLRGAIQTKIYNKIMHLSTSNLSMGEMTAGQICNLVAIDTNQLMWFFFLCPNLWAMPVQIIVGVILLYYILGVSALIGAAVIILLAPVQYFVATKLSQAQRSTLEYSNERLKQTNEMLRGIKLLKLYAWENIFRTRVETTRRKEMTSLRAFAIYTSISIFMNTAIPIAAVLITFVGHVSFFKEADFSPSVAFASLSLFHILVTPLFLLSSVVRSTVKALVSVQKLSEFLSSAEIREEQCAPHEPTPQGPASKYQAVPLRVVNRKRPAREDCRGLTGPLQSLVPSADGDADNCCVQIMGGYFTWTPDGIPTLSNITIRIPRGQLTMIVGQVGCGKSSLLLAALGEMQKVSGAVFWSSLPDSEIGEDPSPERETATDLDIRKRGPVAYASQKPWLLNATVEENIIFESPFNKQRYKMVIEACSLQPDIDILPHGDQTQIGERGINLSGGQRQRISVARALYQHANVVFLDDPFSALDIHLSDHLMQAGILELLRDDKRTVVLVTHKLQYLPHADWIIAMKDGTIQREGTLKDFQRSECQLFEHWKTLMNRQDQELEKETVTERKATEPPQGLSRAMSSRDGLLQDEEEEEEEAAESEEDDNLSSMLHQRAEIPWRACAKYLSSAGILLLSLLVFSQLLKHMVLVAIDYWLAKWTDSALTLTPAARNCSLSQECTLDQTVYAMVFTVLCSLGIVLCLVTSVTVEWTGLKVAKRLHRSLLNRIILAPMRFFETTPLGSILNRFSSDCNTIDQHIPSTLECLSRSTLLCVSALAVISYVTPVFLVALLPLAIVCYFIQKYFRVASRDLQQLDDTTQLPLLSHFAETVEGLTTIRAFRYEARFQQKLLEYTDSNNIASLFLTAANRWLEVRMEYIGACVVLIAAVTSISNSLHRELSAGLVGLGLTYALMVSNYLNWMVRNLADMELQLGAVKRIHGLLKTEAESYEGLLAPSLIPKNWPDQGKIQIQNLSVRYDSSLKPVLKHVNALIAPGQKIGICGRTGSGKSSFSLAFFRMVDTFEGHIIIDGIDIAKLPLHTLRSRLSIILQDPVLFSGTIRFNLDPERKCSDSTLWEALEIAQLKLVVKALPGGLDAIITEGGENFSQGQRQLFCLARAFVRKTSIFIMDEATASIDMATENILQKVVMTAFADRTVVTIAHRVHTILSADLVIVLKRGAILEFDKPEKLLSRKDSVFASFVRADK
- procedure-details: […] of human KATP (SUR1/Kir6.2) channel expressed in Xenopus oocytes
Answers are plain numbers, as −log10 of the molar value.

Example cases with answers are listed next.
line-notation: O=[N+]([O-])c1c(C(F)(F)F)n[nH]c1-c1ccccc1
pEC50: 4.52
//
line-notation: O=[N+]([O-])c1ccc(-c2[nH]nc(C(F)(F)F)c2[N+](=O)[O-])cc1
pEC50: 6.15
//
line-notation: O=[N+]([O-])c1c(-c2ccc(F)cc2F)n[nH]c1C(F)(F)F
pEC50: 5.94

Incoming: Report pEC50 for O=[N+]([O-])c1c(C(F)(F)F)n[nH]c1-c1ccc(C(F)(F)F)cc1C(F)(F)F tested on Sulfonylurea receptor 1, Kir6.2 (Homo sapiens, UniProt Q09428+Q14654).
Outgoing: 6.27

This collection of values is drawn from ChEMBL document CHEMBL1149217.
